Tested on: LOX IMVI melanoma
Test: NCI tumour cell line growth inhibition, 48 h
Reported endpoint: TGI

Reference set, count: 3
Compound	Test value
c1ccc(Cc2cccc3cc(-c4ccc(-c5ccccc5)cc4)[nH]c23)cc1	> 100 µM
COc1ccc(/C=C/C(=O)c2sc(N)nc2C)cc1	> 100 µM
CC(=O)Nc1ccc2nncnc2c1	> 100 µM

Parameters: items (list). Returns: TGI for each item.
1. O=C(CCc1nnc2s/c(=C\c3ccccc3)c(=O)n12)Nc1cc(Cl)ccc1Cl
2. COc1ccc(Nc2c3ccccc3nc3c2c2ccccc2n3C)cc1
3. O=C1NC(=NCC(CO)c2ccccc2)S/C1=C\c1ccc2ncccc2c1 (stereo not given)
4. CN(Cc1cnc2nc(N)nc(N)c2n1)c1ccc(C(=O)NC(CCS(=O)(=O)O)C(=O)O)cc1 (stereo not given)
5. Clc1ccccc1C(n1cc(Br)cn1)n1cc(Br)cn1
6. C=CCN1C(=O)/C(=c2\sc3n(c2=O)C2C(NN=3)N(CC)C(=O)N2CC)c2ccccc21 (stereo not given)
7. COc1ccc(-c2cc(-c3ccccc3)n(C3OC(COC(C)=O)C(OC(C)=O)C(OC(C)=O)C3OC(C)=O)c(=S)c2C#N)cc1 (stereo not given)

Given back:
1. > 100 µM
2. 47.2 µM
3. > 25 µM
4. > 100 µM
5. 31.2 µM
6. > 100 µM
7. > 100 µM

Please look at the items below and tell me TGI for each one, in order.
1. COC(=O)CCC(NC(=S)N/N=C(\C)c1ccccn1)C(=O)OC (stereo not given)
2. N/C(=N\O)c1ncc(-c2ccc(C(F)(F)F)cc2)c(NC2CCCCCC2)n1
3. Cc1cccc2c1Oc1cc(Cl)ccc1C2NC(=O)CCN1CCCCC1 (stereo not given)
4. O=[N+]([O-])c1cccc(C2SCc3nc4ccccc4n32)c1 (stereo not given)
5. O=C1C2=C(C(=O)c3c(O)ccc(O)c31)N(c1ccc(N3CCOCC3)nc1)Cc1ccccc1O2
6. CCCOc1ccc(/C(Cl)=C(\C=O)c2ccc(OC)c(OC)c2)cc1OCCC
7. COc1c(OC(C)=O)cc2c(OC(C)=O)c1CC(C)CC(OC)C(O)C(C)/C=C(\C)C(OC(N)=O)C(OC)/C=C\C=C(/C)C(=O)N2 (stereo not given)

Given back:
> 100 µM
10.8 µM
30.2 µM
> 100 µM
0.517 µM
25.8 µM
> 100 µM

Hi! Can you tell me TGI for each of these compounds?
1. Cn1cc(-c2csc(-c3c[nH]c4ncccc34)n2)c2cc(Br)cnc21
2. C[N+](C)(C)CCOP(=O)(O)OP(=O)([O-])OCC1CCC(n2ccc(N)nc2=O)O1 (stereo not given)
3. C/C(CN1C(=O)c2ccccc2C1=O)=N\NS(=O)(=O)c1ccccc1

Given back:
1: > 100 µM; 2: > 100 µM; 3: > 100 µM

Every entry's value here was drawn from PubChem BioAssay (NCI).
